Can you tell me pEC50 for the items I'm about to list?
# System name: T1, Cynomolgus monkey DLL3 on HEK293 cells (HEK293-cyno DLL3) (Cynomolgus monkey, UniProt Q9NYJ7 27-618 (human entry))
# T1 chain: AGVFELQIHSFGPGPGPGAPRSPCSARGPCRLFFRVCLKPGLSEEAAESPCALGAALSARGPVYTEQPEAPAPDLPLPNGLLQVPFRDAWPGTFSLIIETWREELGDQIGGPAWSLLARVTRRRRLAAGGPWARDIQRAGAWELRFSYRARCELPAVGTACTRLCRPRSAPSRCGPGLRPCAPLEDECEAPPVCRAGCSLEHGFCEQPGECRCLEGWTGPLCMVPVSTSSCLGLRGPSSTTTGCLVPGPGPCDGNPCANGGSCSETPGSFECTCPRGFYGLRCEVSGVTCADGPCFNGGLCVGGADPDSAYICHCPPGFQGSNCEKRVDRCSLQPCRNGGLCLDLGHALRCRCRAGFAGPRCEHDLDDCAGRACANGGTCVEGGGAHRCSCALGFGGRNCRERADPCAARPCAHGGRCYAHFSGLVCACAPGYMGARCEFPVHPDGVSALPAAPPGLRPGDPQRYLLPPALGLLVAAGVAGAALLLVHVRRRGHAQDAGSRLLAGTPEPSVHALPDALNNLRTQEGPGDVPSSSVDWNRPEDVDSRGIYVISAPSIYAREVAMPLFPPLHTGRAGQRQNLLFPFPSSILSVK
# Assay protocol: flow cytometry, HEK293-cyno DLL3 cells
Answers are plain numbers, as −log10 of the molar value.

Binder: 45E4D7 mouse hybridoma-derived anti-DLL3 chimeric antibody (antibody, V domains shown) VH: QVQLQQPGAELVKPGTSVKLSCKASGYTFTSHWITWVKQRPGQGLEWIGDIYPISGSTNNNEKFRNKATLTVDTSSSTAYMQLSSLTSEDSAVYFCAKIITVGGAYVMDYWGQGTSVTVSS VL: DIVLTQSPVTLSVTPGDSVSLSCRASQSVRNNLHWYQQKSHESPRLLIKYVSQSISGIPSRFSGSGSGTDFTLSINSVETEDFGVYFCQQSNSWPLTFGAGTKLELK
Value type: pEC50
Numeric readout: 9.15

Binder: 46A5A4 mouse hybridoma-derived anti-DLL3 chimeric antibody (antibody, V domains shown) VH: QVQLQQSDAELVKPGASVKISCKVSGYTFTDHTIHWMKQRPEQGLEWIGYIYPRDGYTMYNEKFKGKATLTADKSSSTAYMQLNSLTSEDSAVHFCARAFHALDYWGQGTSVTVSS VL: DIQMTQTTSSLSASLGDRVTFTCSASQGISNYLNWYQQKPDGTIKLLIYYTSSLHSGVPSRFSGSGSGTDYSLTISNLEPEDIATYYCQQYSKLPYTFGGGTKLEIK
Value type: pEC50
Numeric readout: 9.17

Binder: 26C4D2 mouse hybridoma-derived anti-DLL3 chimeric antibody (antibody, V domains shown) VH: QVQLQQPGAELVKPGASVKLSCKASGYSFTSYWMHWVKQRPGQGLEWIGMIHPTLGDTNYNEKFKSKATLTVDKSSSTAYMELSSLTSEDSAVYYCARLGSLSMMDYWGQGTSVTVSS VL: DIQMTQTTSSLSASLGDRVTISCSASQGISNYLNWYQQKPDGTVKLLIYYTSSLHSGVPARFSGSGSGTDYSLTISNLEPEDIAIYYCQQYSKFPYTFGGGTKLEIK
Value type: pEC50
Numeric readout: 9.37

// each binder listed below needs its pEC50
1. 48B6D7 mouse hybridoma-derived anti-DLL3 chimeric antibody (antibody, V domains shown) VH: QVQLQQPGAELVKPGTSVKLSCEASGYTFSNYWMQWVRQRPGQGLEWIGMILPNSDITNYNENFQTKATLTVDKSSSTAYMQLSSLTSEDSAVYYCARQARYSAMDYWGQGTSVTVSS VL: DIQMTQTTSSLSVSLGDRVTINCSASQGISNYLNWYQQKPDGTVKLLIYYTSNLHSGVPSRFSGSGSGTDYSLTISNLEPEDIATYYCQHYSKFPYTFGGGTKLEIK
2. 39E2D11-1 mouse hybridoma-derived anti-DLL3 chimeric antibody (antibody, V domains shown) VH: QVQLQQSGAELVKPGASVKMSCKASGYTFISYWITWVKQRPGQGLEWIGDIYPGSGSTTNYNEKFKSKATLTVDTSSSTAYMQLSSLTSEDSAVYYCARETTVGGAYAMDYWGQGTSVTVSS VL: DIVLTQSPATLSVTPGDSVSLSCRASQSINNNLHWYQQKSHESPRLLIKYVSQSISGIPSRFSGSGSGTDFTLTINSVETEDFGMYFCQQTNSWPLTFGAGTKLELK

## Output
[9.28, 8.99]
